Every entry's value here was drawn from the nanobody polyreactivity screen of Harvey et al. (2022).

- MEASUREMENT_DESCRIPTION: yeast display, Sf9 membrane polyspecificity reagent, FACS + sequencing; frameworks hold sequencing errors
VALUE_TYPE: polyreactivity (PSR sort gate)

Please review the following examples before continuing.
SEQUENCE_CONTENT	VALUE_TYPE	EXPERIMENTAL_VALUE
QVQLVESVGGLVQAGGSLRLSCAASGFIFGYNAMGWYRQAPGKERELVAAITSRGDRTYYADSVKGRFTISRDNAKNTVYLQMNSLKPEDTAVYYCAKATRGYRSPYCSIGYYYWGQGTQLTVSS	polyreactivity (PSR sort gate)	high polyreactivity
QVQLVESGGGLVQAGGSLRLSCAASGRIFRKYAMGWYRQAPGKERELVAAISGSGGSTTYADSVKGRFTISRDNAKNTVYLQMNSLKPEDTAVYYCAARGYSLYGYPYYYWGQGTQVSVSS	polyreactivity (PSR sort gate)	high polyreactivity
QVQLVESGGGLVQAGGSLRLSCAASGRIFDGYDMGGYRQAPGQEREWVAAITSVGSTNYADSVKGRFTISRDNAKNTVYLQMNSLKPDDTAVYYCAAVLYVFYDDYGYWEYFSQYDYWGQGTQVTVSS	polyreactivity (PSR sort gate)	low polyreactivity
QVQLVESGGGLVKAGGSLRLSCAASGYTYPLYAMGWYRQAPGKEMELVADINIGGASTYYADSVKGRFTISRDNAKNTVYLQMNSLKPEDTAVYDCAKEYYDGYFPTFDYDYWGQGTQVTVSS	polyreactivity (PSR sort gate)	low polyreactivity

API: the following record is the query input.
Input line: Note polyreactivity (PSR sort gate) for the sequence shown: QVQLVESGGGLVQAGGSLRLSCAASGRTFGYYAMGWYRQAPGKERELVATITFGGGSTYYADSVKGRFTISRDNAKNTVYLQMNSLKPEDTAVYYCAADTSVHSEVDYWGQGTQVTVSS
Output line: low polyreactivity

====

- MEASUREMENT_DESCRIPTION: yeast display, Sf9 membrane polyspecificity reagent, FACS + sequencing; frameworks hold sequencing errors
VALUE_TYPE: polyreactivity (PSR sort gate)

Please review the following examples before continuing.
SEQUENCE_CONTENT	polyreactivity (PSR sort gate)
QVQLVESGGGLVQAGGSLRLSCAASGRLFRWYAMGGYRQAPGKERELVAAISRSGTSTYYADSVKGRFTISRDNAKNSVYLQMNSLKPEDTAVYYCAADAVIFGMDYWGQGTQVTVSS	low polyreactivity
QVQLVESGGGLVQAGGSLRLSCAAYGSIIRRYAMGWYRQAPGKERELVATISSGSRTYYADSVKGRFTISRDNAKNTVYLQMNSLKPEDTAVYYCNARSRRVGLTLYNYWGQGTQVTVSS	high polyreactivity
QVQLVESGGGLVQAGGSLRLSCAASGLIFSRNAMGWNRPAPGKERELVAAISTGGSTYYADSVKGRFTISRDNAKNTVYLQMNRLKPVDTAVYYCAAAPGYIYEYWGQGTQVTVSS	low polyreactivity
QVQRVESGGGLVQAGGRLRLSCAASGRTFETNAMGWYRQAPGKERELVAAISRSGGSTRYADSVKGRFTISRDNAKNTVYLQMNSLKPEDTAVYYCAVRVGLGGGYGGQGTQVTVSS	high polyreactivity

API: the following record is the query input.
Input line: Note polyreactivity (PSR sort gate) for the sequence shown: QVQLVESGGGLVQAGGSLRLSCAASGFIFYRYAMGWYRQAPGKERELVAAITGSGARTYYADSVKGRFTISRDNAKNTVYLQMNSLKPEDTAVYYCAARYILSKYGSGVRYNYWGQGTQVTVSS
Output line: high polyreactivity

====

- MEASUREMENT_DESCRIPTION: yeast display, Sf9 membrane polyspecificity reagent, FACS + sequencing; frameworks hold sequencing errors
VALUE_TYPE: polyreactivity (PSR sort gate)

Please review the following examples before continuing.
SEQUENCE_CONTENT	polyreactivity (PSR sort gate)
QVQLVESGGGLVQAGGSLRLSCAASGSTFRVYAMGWYRQAPGKERELVAGISWRGGSTSYADSVKGRFTISRDNAKNTVYLQMNSLKPEDTAVYYCAVQRSYVGPRQYNYWGQGTQVTVSS	high polyreactivity
QVQLVESGGGLVQAGGSLRLSCAASGSIFLNNAMGWYRQAPGKERELVAAITRNVGSTYYADSVKGRFTISRDNAKNTVYLQMNSLKPEDTAVYYCAADRRRRYDYWGQGTQVTVSS	low polyreactivity
QVQLVESGGGLVQAGGSLRLSCAASGSIYRYYDMGWYRQAPGKERELVAAITYSGGGTYYADSVKGRFTISRDNAKNTVYLQMNSLKPEDTAVYYCAAEPYYGWKRLDYWGQVTQVTVSS	low polyreactivity
QVQLVESGGGLVQAGGSLRLSCAASGSIFTVNTMGWYRQAPGKERELVATISKRGGRTYYADSVKGRFTISRDNAKNTVYLQMNSLKPEDTAVYYCNRVASGYPVGTSIDYGYWGQGTQVTVSS	high polyreactivity

API: the following record is the query input.
Input line: Note polyreactivity (PSR sort gate) for the sequence shown: QVQLVESGGGLVQAGGSLRLSCAASGNTFNANAMGWYRQAPGKERELVAVISANGGRTYYADSVKGRFTISRDNAKNTVYLQMNSLKPEDTAVYYCATGRYGGQGYPFYYWGQGTQVTVSS
Output line: low polyreactivity

====

- MEASUREMENT_DESCRIPTION: yeast display, Sf9 membrane polyspecificity reagent, FACS + sequencing; frameworks hold sequencing errors
VALUE_TYPE: polyreactivity (PSR sort gate)

Please review the following examples before continuing.
SEQUENCE_CONTENT	EXPERIMENTAL_VALUE
QVQLVESGGGLVQAGGSLRLRCAASGRTFELYAMGWYRQAPGKERALVAAITASGGTTYYADSVKGRFTISRDNAKNTVYLQMNSLKPEDTAVYYCAAEYSYYPFTDYDYWGQGTQVSVSS	high polyreactivity
QVQLVESGGGLVQAGGSLRLSCAASGFIFAYNAMGWYRQAPGKERELDAAISRSGGSTRYADSVKGRFTISRDNAKNTVYLQMNSLKPEDTAVYYCNVSRYGYGVGRGLYIYDYWGQGTQVTVSS	high polyreactivity
QVQLVESGGGLVQAGGSLRLSCASSGSIFQYYVMGWYRPAPGKERELVAAMRRSGTTYYADSVKGRFTISRDNAKHTLDLQMNSLKPEDTAVYYCNKVRGQEPSNYDYWGQGTQVTVSS	low polyreactivity
QVQLVESGGGLVQAGGSLRLSCAATGRTFSVYTMGWYRQAPGKERELVASISRSGGRTYYADSVKGRFTISRDNAKNTVYLQMNSLKPEDTAVYYCAARWYSASALKYYYWGQGTQVTVSS	high polyreactivity

Can you give me polyreactivity (PSR sort gate) for all of these, one by one?
1. QVQLVESGGGLYQAGGSLRLNCAASGYIFQTYAMVWYRQAPGKEREFVAAITSGAGRTSYADSVKGRFTISRDNAKNTVYLELNSLIPEVTAVYYCNARGRKRSYHRKSSDPYGYWGQGNQVTVSS
2. QVQLVESGGGLVQAGGSLRLSCAASGNTFWYNAMGWYRQSPGKERELVAAISYSGGGTYYADSVKGRFTISRDNAKNTVYLQMNSLKPEDTAVYYCAADTLQRAFVLNDYWGQGTQVTVSS
3. QDKLVESGGGLVQAGGSLRLICAASGFTFNRYALGWYRKAPGKERELVAGITGGGSTKYADSVKGRFTISRDNAKNTVYLQMNSLKPEDTSVYYCNASGYSYGARYYYWGQGTQVTVSS
4. QVQLVESGGGLVQEGGSLRISCAASGSIFQSNAMGRYRQAPGKERERVAAISSSGVRTYYADSVKGRFTISRDNAKNTVYLQMNSLKREDTAVYYCATGWYYAGGPTYEYYYWGQGTQVTVSS
5. QVQLVESGGGLVQAGGSLRLSCAASGFIFRRNAMGWYRQAPGKERELVAAISTRGGITYYADSVKGRFTISRDNAKNTVYLQMNSLKPDDTAVYYCAVVFVWGWPGYYWGQGTQVTVSS
6. QVQIVESGGGLVQAGGSLRLSCPASGGIFTKNAMGWYRQAPGKERELVAGISRTGGNTYYADSVKGRFTISRDNAKNNVYLQMKSLKPEDTAVYYCKALYGGPHRLRYDYWGQGTQVTVSS

Output line:
high polyreactivity
low polyreactivity
high polyreactivity
low polyreactivity
high polyreactivity
low polyreactivity

Input line: Note polyreactivity (PSR sort gate) for the sequence shown: QVQLVESGGGLVQAGGSLRLSCAASGSIFGRYVMGWYRQAPGKERELVAAITSVGITNYADSVKGRFTISRDNAKNTVYLQMNSLKPEDTAVYYCAKRYYRYGARSWYYPYDYWGQGTQVTVSS
Output line: high polyreactivity

====

- MEASUREMENT_DESCRIPTION: yeast display, Sf9 membrane polyspecificity reagent, FACS + sequencing; frameworks hold sequencing errors
VALUE_TYPE: polyreactivity (PSR sort gate)

SEQUENCE_CONTENT	polyreactivity (PSR sort gate)
QVQLVESGGGLVQAGGSLRLSCAASGRTFRYYAMGLYRQAPGKERELVAAIRSGGTTYYADSVKGRFTISRDNAKNTVYLQMNSLKPEDTAVYYCAADGGKGGIRFGYWGQGTQVTVSS	high polyreactivity
QFQLVESGGGLVQAGGSLRLSCAASGRIFPGYAMGWYRQAPGKERELVAAISERGGSTYYADSVKGRFTISRDHAKNTVYLQMNSLKPEDTAVYYCAAIWRGGYNYWGQGTQVTVSS	low polyreactivity
QVQLVESGGGLVQAGGSLRLSCAASGRIFYYAMGWYRQAPGKERELVASITWSGGSTYYADSVKGRFTISRDNAKNTVYLQMNSLKPEDTAVYYCNADDLYTWYVVYNYWGQGTQVTVSS	low polyreactivity
QVQLVESGGRLVQAGGSLRLSCAASGIIIRKYARGWYRPAPGKVRELVAAITTRGSRTYSADSVKGRFTISRDNAKNTVYLQMNSLKPEDTAVYYCAADRYTVRMDYWGQGTQVTVSS	high polyreactivity
QVQRVESGGGLVQAGGSLRLSCAASGIIFALYAMGWYRQAPGKERELVAAISTSGGRTYYADSVKGRFTISRDNAKNTVYFQMNSLKPEDTAVYYCAAGYPYWYHSRLAFDYWGQGTQVTVSS	high polyreactivity
QVQLVESGGGLVQAGGSLRLSCAASGRILTSYARGWYRQAPGKVRELVAAISYVCGSTDYADSVKGRFTISRDNAKNTVYLQMNSLKPEDTAVYYCAAKVRYYLSLRGSTTRRDDYYWGQGTQVTVSS	low polyreactivity
QVQLVESGGGLVQAGGSLRLSCAASGRIFRTYAMGWYRQAPGKERELVAAINSGGTTYYADSVKGRFTISRDNAKNTVYLQMNSLKPEDTAVYYCNAEYYYAFLRLWYDYWGQGTQVTVSS	high polyreactivity
QVQLVESGGGLVQAGGSLRISCAASGSTLRRYAMGWYRQAPGKERELVAAISGSGDSTYYADSVKGRFTISRDNAKNTVYLQMNSLKPEDTAVYYCNAVYAFNGYDYWGQGTQVTVSS	low polyreactivity

Can you give me polyreactivity (PSR sort gate) for all of these, one by one?
1. QVQLVESGGGLVQAGGSLRLSCAASGFTLGFYAMGWYRQAPGKESELVAAINWRGGSTYYADSVKGRFTISRDNAKNTVYLQMNSLKPEDTAVYYCNARWARGRYAQYVGLDREYDYWGQGTQVTVSS
2. QVQLVESGGGLVQAGGSLRLSCAASGRIFWYNAMGWSRQAPGKESELVAAISWRGSRTYYADSVKGRFTISRDNAKNTVYLQMNSLKPEDTAVYYCAADPDVYAYYGYDYWGQGTQVTVSS

Output line:
1: high polyreactivity; 2: high polyreactivity

Input line: Note polyreactivity (PSR sort gate) for the sequence shown: QVQLVESGGGLVQAGGSLRLSCAASGSTSKYYAMGWYRQAPGKERELVAAITWSDVSTYYADSVKGRFTISRDNAKNTVYLQMNSLKPEDTAVYYCNAGYDYWGQGTQVTVSS
Output line: low polyreactivity
